target: T1, CCR5 (UniProt P51681 1-352, limits assumed)
T1 construct: whole, on cells; L1.2/CCR5 cells for chemotaxis; also called CCR5-expressing CHO membranes; L1.2/CCR5 transfectants
T1 sequence (P51681 whole entry): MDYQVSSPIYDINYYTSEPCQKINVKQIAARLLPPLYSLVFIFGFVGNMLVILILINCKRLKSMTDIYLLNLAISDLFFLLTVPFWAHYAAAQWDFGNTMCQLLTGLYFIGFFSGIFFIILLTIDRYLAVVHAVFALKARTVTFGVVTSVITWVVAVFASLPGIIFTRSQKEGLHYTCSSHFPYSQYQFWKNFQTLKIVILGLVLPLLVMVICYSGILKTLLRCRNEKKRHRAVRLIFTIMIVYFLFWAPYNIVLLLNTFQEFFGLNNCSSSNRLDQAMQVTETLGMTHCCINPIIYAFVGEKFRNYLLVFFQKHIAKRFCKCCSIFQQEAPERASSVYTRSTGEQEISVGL
experiment: competition SPA, displacement of 125I-MIP-1α from CCR5 CHO membranes (FIG. 2)
observable: IC50 (nM)

{"columns": ["binder", "unit string", "result value"],
 "data": [
  ["Met-RANTES (ligand, The build (Met + mature RANTES) comes from the background description and the name) MSPYSSDTTPCCFAYIARPLPRAHIKEYFYTSGKCSNPAVVFVTRKNRQVCANPEKKWVREYINSLEMS", "nM", 15.5],
  ["S4C-5 kDaPEG-RANTES (ligand, This is probably a printing error; also called S4C-5 kDa-RANTES) SPYC(mPEG‑MAL 5 kDa)SDTTPCCFAYIARPLPRAHIKEYFYTSGKCSNPAVVFVTRKNRQVCANPEKKWVREYINSLEMS", "nM", 45.4],
  ["S1C-5 kDaPEG-RANTES (ligand, Expressed without a leader; also called S1C-5 kDa-RANTES) C(mPEG‑MAL 5 kDa)PYSSDTTPCCFAYIARPLPRAHIKEYFYTSGKCSNPAVVFVTRKNRQVCANPEKKWVREYINSLEMS", "nM", 82.5]
]}
